Test system: DU-145
ASSAY_DETAILS: Cytotoxicity against human DU145 cells after 48 hrs by MTT assay
Assay type: functional, cell-based
CONDITION_INFO: DU-145, 48 h
pIC50: −log10 of the molar value.
Label met for high-side pIC50 (at or above 4) and not met for low-side pIC50 (below it).

Assess whether reported pIC50 for COc1cc(-c2noc(C3CCN(C(=O)OC(C)(C)C)CC3)n2)cc(OC)c1OC sits at 4 or higher.
met

What do you get for CCOC(=O)N1CCC(c2nc(-c3ccc(OC)c(OC4CCCC4)c3)no2)CC1 ?
met

What do you get for COc1ccc(-c2noc(C3CCN(S(C)(=O)=O)CC3)n2)cc1OC1CCCC1 ?
not met

What do you get for COc1cc(-c2noc(C3CCNCC3)n2)ccc1OC1CCCC1 ?
met

What do you get for COc1cc(-c2noc(-c3cc(OC)c(OC)c(OC)c3)n2)cc(OC)c1OC ?
not met

###

// pIC50 lookup, one value per entry
Test system: DU-145
ASSAY_DETAILS: Cytotoxicity against human DU145 cells after 48 hrs by MTT assay
Format: functional, cell-based
CONDITION_INFO: DU-145, 48 h
// field semantics: pIC50 = negative decimal log of concentration (mol/L)

These solved cases illustrate the format of a correct answer.
COc1ccc(-c2noc(C3CCNCC3)n2)cc1OC | 3.97
COc1cc(-c2noc(C3CCNCC3)n2)cc(OC)c1OC | 3.95
CCCCOc1cc(-c2noc(C3CCN(C(=O)OC(C)(C)C)CC3)n2)ccc1OC | 3.99
COc1ccc(-c2noc(C3CCCC3)n2)cc1OC1CCCC1 | 3.98
COc1cc(-c2noc(C3CCN(C(=O)OC(C)(C)C)CC3)n2)ccc1OC1CCCC1 | 4.01
COc1ccc(-c2noc(C3CCN(C(=O)OC(C)(C)C)CC3)n2)cc1OC1CCCC1 | 3.92
COc1ccc(-c2noc(C3CCCCC3)n2)cc1OC1CCCC1 | 3.97
CCCCOc1cc(-c2noc(C3CCNCC3)n2)ccc1OC | 4.77
COc1ccc(-c2nc(-c3cc(OC)c(OC)c(OC)c3)no2)cc1 | 4.00
COc1ccc(-c2nc(-c3ccc(OC)c(OC4CCCC4)c3)no2)cc1OC | 3.37

Value lookup for pIC50; key = COc1ccc(-c2nnc(C3CCNCC3)s2)cc1OC1CCCC1
4.71

What do you get for CCOc1cc(-c2noc(C3CCNCC3)n2)ccc1OC ?
3.78

What do you get for COc1ccc(-c2nnc(C3CCNCC3)o2)cc1OC1CCCC1 ?
3.83

What do you get for COc1ccc(-c2nc(-c3ccc(OC)c(OC4CCCC4)c3)no2)cc1 ?
3.38

What do you get for CCOc1cc(-c2noc(C3CCN(C(=O)OC(C)(C)C)CC3)n2)ccc1OC ?
3.81

What do you get for COc1ccc(-c2noc(C(Cl)(Cl)Cl)n2)cc1OC1CCCC1 ?
5.03

What do you get for COc1ccc(-c2noc(C3CCN(C(=O)OC(C)(C)C)CC3)n2)cc1OC ?
3.80
